Measured RLU/200 (integrated quantity of light emitted for 200 seconds) by item
molecular target: Coleoptera luciferase (Photinus pyralis, UniProt P08659); construct: purchased Toyo Ink Manufacturing Co., Ltd. PGL100; test: luciferin/luciferase luminescent reaction with an added sulfur reagent, measured on a luminometer; type: biochemical; conditions: final concentration 0.33 mM; 100 ng/mL luciferase
Sequence (P08659 whole entry): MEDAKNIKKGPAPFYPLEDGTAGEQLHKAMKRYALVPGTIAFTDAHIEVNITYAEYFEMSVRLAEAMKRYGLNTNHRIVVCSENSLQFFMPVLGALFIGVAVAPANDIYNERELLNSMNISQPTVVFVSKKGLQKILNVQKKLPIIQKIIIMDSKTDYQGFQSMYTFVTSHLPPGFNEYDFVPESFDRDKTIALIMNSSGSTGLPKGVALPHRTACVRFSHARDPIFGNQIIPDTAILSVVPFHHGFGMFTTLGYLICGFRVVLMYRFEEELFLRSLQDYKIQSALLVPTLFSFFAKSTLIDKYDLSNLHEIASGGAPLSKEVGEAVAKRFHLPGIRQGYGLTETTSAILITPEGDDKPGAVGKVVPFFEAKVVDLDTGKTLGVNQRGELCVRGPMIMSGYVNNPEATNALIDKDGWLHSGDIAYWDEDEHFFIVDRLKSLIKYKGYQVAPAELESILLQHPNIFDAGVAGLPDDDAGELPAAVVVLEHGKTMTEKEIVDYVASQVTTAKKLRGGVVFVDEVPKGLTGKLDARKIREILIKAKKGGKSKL

| compound | value.observed |
| --- | --- |
| Sc1nc2ccccc2s1 | 492,116,224 RLU/200 sec |
| CCN(CC)C(=S)[S-].[Na+] [Sodium diethyldithiocarbamate, sodium diethyldithiocarbamate] | 592,116,224 RLU/200 sec |
| CCOC(=S)[S-].[K+] [Potassium xanthogenate, potassium xanthogenate] | 616,747,200 RLU/200 sec |

Now turn to the next compound.
The compound O[C@H](CS)[C@H](O)CS (racemic) [DTT, dithiothreitol, reference compound] showed RLU/200 (integrated quantity of light emitted for 200 seconds) equal to 511,723,424 RLU/200 sec
